observation type: melting point

Fill in: melting point of `CCCCCC[C@@H](CC(N)=O)N(CCC)C(=O)[C@H](CCCC(=O)O)NC(=O)c1cn(Cc2cccc(Cl)c2)c2ccccc12` is ___ 106 to 109 °C

Another molecule to check: `CCCCCCCCCCCCC[C@@H](CC(N)=O)N(CC(C)C)C(=O)[C@H](CCCC(=O)O)NC(=O)c1ccc2ccccc2n1` 65 to 66 °C

Also, `CCCCc1ccc(C[C@@H](CC(N)=O)N(CCCC)C(=O)[C@H](CCCC(=O)O)NC(=O)c2cn(Cc3ccccc3Cl)c3ccccc23)cc1` please. 166 to 168 °C

Please give the result for `CCCCCCCc1ccc(C[C@@H](CC(N)=O)N(CCCC)C(=O)[C@H](CCCC(=O)O)NC(=O)c2cn(Cc3ccccc3Cl)c3ccccc23)cc1` too. 79 to 81 °C

Another molecule to check: `CCCCCCCCC[C@@H](CC(N)=O)N(CCC)C(=O)[C@H](CCCC(=O)O)NC(=O)c1cn(Cc2ccccc2)c2ccccc12` 155 to 160 °C

# repeat for `CCCCCCCCC[C@@H](CC(N)=O)N(CCCCC)C(=O)[C@H](CCCC(=O)O)NC(=O)c1cn(Cc2ccccc2)c2ccccc12` 125 to 127 °C

Now the molecule `CCCCCC[C@@H](CC(N)=O)N(CCC)C(=O)[C@H](CCCC(=O)O)NC(=O)c1cn(Cc2ccccc2Cl)c2ccccc12` 175 to 180 °C

====

Can you tell me melting point for the items I'm about to list?

Look up melting point for this molecule: `CCCCCC[C@@H](CC(N)=O)N(CC)C(=O)[C@H](CCCC(=O)O)NC(=O)c1cn(Cc2ccccc2Cl)c2ccccc12` 180 to 183 °C

Can you handle `CCCCN(C(=O)[C@H](CCCC(=O)O)NC(=O)c1cn(Cc2ccccc2)c2ccccc12)[C@H](CC(N)=O)Cc1ccc2cc(CC)ccc2c1` next? 100 to 116 °C

Also, `CCCC[C@@H](CC(N)=O)N(CCCC)C(=O)[C@H](CCCC(=O)O)NC(=O)c1cn(Cc2cccc3ccccc23)c2ccccc12` please. 105 to 113 °C

====

Would you mind telling me the reported melting point of each entry?

Quick one: melting point for `CCCN(C(=O)[C@H](CCCC(=O)O)NC(=O)c1cn(Cc2ccccc2Cl)c2ccccc12)[C@H](CC(N)=O)Cc1ccc(C)cc1` ? 79 to 96 °C

`CCCC[C@@H](CC(N)=O)N(CCC)C(=O)[C@H](CCCC(=O)O)NC(=O)c1cn(Cc2cccc3ccccc23)c2ccccc12` ? 98 to 116 °C

For `Cc1ccc(Cn2c(C(=O)N[C@@H](CCCC(=O)O)C(=O)O[C@H](CC(N)=O)Cc3ccc4ccccc4c3)cc3ccccc32)cc1` then? 86 to 90 °C

Next up: `CCCCCC[C@@H](CC(N)=O)N(CCC)C(=O)[C@H](CCCC(=O)O)NC(=O)c1cn(Cc2ccccc2)c2ccccc12` 147 to 157 °C

And `CCCCCC[C@@H](CC(N)=O)N(CCC)C(=O)[C@H](CCCC(=O)O)NC(=O)c1cn(Cc2ccccn2)c2ccccc12` ? 78 to 95 °C

Moving on to the next compound: `CCCN(C(=O)[C@H](CCCC(=O)O)NC(=O)c1cn(Cc2ccccc2)c2ccccc12)[C@H](CC(N)=O)Cc1ccc2cc(CC)ccc2c1` 105 to 116 °C

What about `CCCC[C@@H](CC(N)=O)N(CCC)C(=O)[C@H](CCCC(=O)O)NC(=O)c1cn(Cc2ccccc2Cl)c2ccccc12` ? 95 to 98 °C

// next record `CCCCCC[C@@H](CC(N)=O)N(CCCC)C(=O)[C@H](CCCC(=O)O)NC(=O)c1cn(Cc2ccccc2)c2ccccc12` 124 to 127 °C

How about `CCCCCCCCCCCCC[C@@H](CC(N)=O)N(CCC)C(=O)[C@H](CCCC(=O)O)NC(=O)c1ccc2ccccc2n1.Cl` ? 59 to 62 °C

Also need `CCN(C(=O)[C@H](CCCC(=O)O)NC(=O)c1cn(Cc2cccc3ccccc23)c2ccccc12)[C@H](CC(N)=O)Cc1ccc2ccccc2c1` , thanks. 118 to 126 °C

Repeat with `CC(C)(C)OC(=O)N[C@@H](CCCC(=O)OCc1ccccc1)C(=O)O[C@H](CC(N)=O)Cc1ccc(-c2ccccc2)cc1` 94 to 98 °C

Now consider `CCCCCC[C@@H](CC(N)=O)N(CCCCC)C(=O)[C@H](CCCC(=O)O)NC(=O)c1cn(Cc2ccccc2)c2ccccc12` and answer again. 127 to 129 °C

Here is the next compound: `CCCCN(C(=O)[C@H](CCCC(=O)O)NC(=O)c1cn(Cc2ccccc2Cl)c2ccccc12)[C@H](CC(N)=O)Cc1ccc2cc(CC)ccc2c1` 100 to 116 °C

Query `CCCN(C(=O)[C@H](CCCC(=O)O)NC(=O)c1cn(Cc2cccc3ccccc23)c2ccccc12)[C@H](CC(N)=O)Cc1ccc2ccccc2c1` next 123 to 126 °C

Check `CCCN(C(=O)[C@H](CCCC(=O)O)NC(=O)c1cn(Cc2ccccn2)c2ccccc12)[C@H](CC(N)=O)Cc1ccc2cc(CC)ccc2c1` too. 110 to 116 °C

Param item: `CCCN(C(=O)[C@H](CCCC(=O)O)NC(=O)c1cn(Cc2ccccc2)c2ccccc12)[C@H](CC(N)=O)Cc1ccc2ccccc2c1` 91 to 94 °C

And what about the compound `CCCCc1ccc(C[C@@H](CC(N)=O)N(CCCC)C(=O)[C@H](CCCC(=O)O)NC(=O)c2cn(Cc3ccccc3)c3ccccc23)cc1` ? 77 to 82 °C

And the next one, `CCCCc1ccc(C[C@@H](CC(N)=O)N(CCC)C(=O)[C@H](CCCC(=O)O)NC(=O)c2cn(Cc3ccccc3)c3ccccc23)cc1` ? 82 to 88 °C

Queued: `CCCCCN(C(=O)[C@H](CCCC(=O)O)NC(=O)c1cn(Cc2cccc3ccccc23)c2ccccc12)[C@H](CC(N)=O)Cc1ccc2ccccc2c1` 112 to 116 °C

Follow-up entry: `CCCCc1ccc(C[C@@H](CC(N)=O)N(CCC)C(=O)[C@H](CCCC(=O)O)NC(=O)c2cn(Cc3ccccc3Cl)c3ccccc23)cc1` 83 to 87 °C

Try the compound `CCCN(C(=O)[C@H](CCC(=O)O)NC(=O)c1cn(Cc2ccccc2Cl)c2ccccc12)[C@H](CC(N)=O)Cc1ccc2ccccc2c1` 85 to 92 °C

Please answer likewise for `CCCCCCCCCCCCC[C@@H](CC(N)=O)N(Cc1ccccn1)C(=O)[C@H](CCCC(=O)O)NC(=O)c1ccc2ccccc2n1.Cl.Cl` 74 to 81 °C

Would you mind doing `CCCCN(C(=O)[C@H](CCCC(=O)O)NC(=O)c1cn(Cc2ccccc2Cl)c2ccccc12)[C@H](CC(N)=O)Cc1ccc2ccccc2c1` as well? 104 to 110 °C

And for `CCCCN(C(=O)[C@H](CCCC(=O)O)NC(=O)c1cn(Cc2ccccc2)c2ccccc12)[C@H](CC(N)=O)Cc1ccc2ccccc2c1` ? 90 to 96 °C

Repeat with `CCCCCCCCC[C@@H](CC(N)=O)N(CCC)C(=O)[C@H](CCCC(=O)O)NC(=O)c1cn(Cc2ccccc2Cl)c2ccccc12` 145 to 150 °C

# iterate: `CCCC[C@@H](CC(N)=O)N(CCCC)C(=O)[C@H](CCCC(=O)O)NC(=O)c1cn(Cc2ccccc2Cl)c2ccccc12` 105 to 110 °C

Would you mind doing `CCCCCC[C@@H](CC(N)=O)N(CCC)C(=O)[C@H](CCCC(=O)O)NC(=O)c1cn(Cc2cccc3ccccc23)c2ccccc12` as well? 139 to 141 °C

====

observation type: melting point

Tell me the measured melting point of `CCCCCC[C@@H](CC(N)=O)N(CC)C(=O)[C@H](CCCC(=O)O)NC(=O)c1cn(Cc2ccccc2)c2ccccc12` , please. 80 to 85 °C

Also `CCCCCC[C@@H](CC(N)=O)N(CCCC)C(=O)[C@H](CCCC(=O)O)NC(=O)c1cn(Cc2ccccc2Cl)c2ccccc12` ? 153 to 156 °C

What do we get for CN(CCC(N)=O)C(=O)[C@H](CCCC(=O)O)NC(=O)c1cc2ccccc2cc1Cc1ccccc1 [Example 180] ? 147 to 157 °C

Entry to check: `CCN(C(=O)[C@H](CCCC(=O)O)NC(=O)c1cn(Cc2ccccc2Cl)c2ccccc12)[C@H](CC(N)=O)Cc1ccc2ccccc2c1` 110 to 114 °C

Here is the next compound: `CCCN(C(=O)[C@H](CCCC(=O)O)NC(=O)c1cn(Cc2ccccc2)c2ccccc12)[C@H](CC(N)=O)Cc1ccc(C)cc1` 83 to 92 °C

# iterate: `CCCCCN(C(=O)[C@H](CCCC(=O)O)NC(=O)c1cn(Cc2ccccc2)c2ccccc12)[C@H](CC(N)=O)Cc1ccc2ccccc2c1` 89 to 93 °C

// query: `CCN(C(=O)[C@H](CCCC(=O)O)NC(=O)c1cn(Cc2ccccc2)c2ccccc12)[C@H](CC(N)=O)Cc1ccc2ccccc2c1` 110 to 112 °C

The origin of these recorded values is patent US20020169326A1.
